# System: 186277-243-T-J2-PDC multi-cell spheroid viability;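 further: spheroids exposed to compounds for seven days before viability reading; 100% = DMSO vehicle control viability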
# Test Protocol: Anticancer human tumor 186277-243-T-J2-PDC patient-derived colon adenocarcinoma cell line growth inhibition [PI3K]
# Conditions Used: second compound 0.01 µM; first compound 0.316 µM; active compounds read low
Measured Metric: viability, T/C (%)
Output spec: scalar in %, unitless text.

Give viability, T/C for this entry on 186277-243-T-J2-PDC multi-cell spheroid viability: CC1(C)CCC(CN2CCN(c3ccc(C(=O)NS(=O)(=O)c4ccc(NCC5CCOCC5)c([N+](=O)[O-])c4)c(Oc4cnc5[nH]ccc5c4)c3)CC2)=C(c2ccc(Cl)cc2)C1 + COc1c(OCCCN2CCOCC2)ccc2c3n(c(=NC(=O)c4cnc(N)nc4)nc12)CCN3
96.5

Give viability, T/C for this entry on 186277-243-T-J2-PDC multi-cell spheroid viability: Cn1ncc(Cl)c1-c1cc(C(=O)NC(CN)Cc2cccc(F)c2)sc1Cl (stereo unspecified) + COc1c(OCCCN2CCOCC2)ccc2c3n(c(=NC(=O)c4cnc(N)nc4)nc12)CCN3
38.2

Give viability, T/C for this entry on 186277-243-T-J2-PDC multi-cell spheroid viability: CC(Cn1ccc(-c2ccc(C#N)c(Cl)c2)n1)NC(=O)c1cc(C(C)O)[nH]n1 (stereo unspecified) + COc1c(OCCCN2CCOCC2)ccc2c3n(c(=NC(=O)c4cnc(N)nc4)nc12)CCN3
101

Give viability, T/C for this entry on 186277-243-T-J2-PDC multi-cell spheroid viability: Cn1nccc1Nc1nccc(-c2ccn(C(CO)c3ccc(Cl)c(F)c3)c(=O)c2)n1 (stereo unspecified) + CC(Nc1ccc2c(c1)OCCn1cc(N3C(=O)OCC3C(F)F)nc1-2)C(N)=O
109

Give viability, T/C for this entry on 186277-243-T-J2-PDC multi-cell spheroid viability: C=CC(=O)N1CCN(c2nc(=O)n(-c3c(C)ccnc3C(C)C)c3nc(-c4c(O)cccc4F)c(F)cc23)C(C)C1 (stereo unspecified) + CC(Nc1ccc2c(c1)OCCn1cc(N3C(=O)OCC3C(F)F)nc1-2)C(N)=O
107

Give viability, T/C for this entry on 186277-243-T-J2-PDC multi-cell spheroid viability: C[C@@H](NC(=O)c1ncnc(N)c1Cl)c1ncc(C(=O)Nc2cc(C(F)(F)F)c(Cl)cn2)s1 + COc1c(OCCCN2CCOCC2)ccc2c3n(c(=NC(=O)c4cnc(N)nc4)nc12)CCN3
113

Give viability, T/C for this entry on 186277-243-T-J2-PDC multi-cell spheroid viability: CC(C)NCC(C(=O)N1CCN(c2ncnc3c2C(C)CC3O)CC1)c1ccc(Cl)cc1 (stereo unspecified) + CC(Nc1ccc2c(c1)OCCn1cc(N3C(=O)OCC3C(F)F)nc1-2)C(N)=O
62.2

Give viability, T/C for this entry on 186277-243-T-J2-PDC multi-cell spheroid viability: C#Cc1c(F)ccc2cc(O)cc(-c3ncc4c(N5CC6CCC(C5)N6)nc(OCC56CCCN5CC(F)C6)nc4c3F)c12 (stereo unspecified) + CC(Nc1ccc2c(c1)OCCn1cc(N3C(=O)OCC3C(F)F)nc1-2)C(N)=O
15.8

Give viability, T/C for this entry on 186277-243-T-J2-PDC multi-cell spheroid viability: CCN1CCN(Cc2ccc(Nc3ncc(F)c(-c4cc(F)c5nc(C)n(C(C)C)c5c4)n3)nc2)CC1 + COc1c(OCCCN2CCOCC2)ccc2c3n(c(=NC(=O)c4cnc(N)nc4)nc12)CCN3
123

Give viability, T/C for this entry on 186277-243-T-J2-PDC multi-cell spheroid viability: CCCS(=O)(=O)Nc1ccc(F)c(C(=O)c2c[nH]c3ncc(-c4ccc(Cl)cc4)cc23)c1F + CC(Nc1ccc2c(c1)OCCn1cc(N3C(=O)OCC3C(F)F)nc1-2)C(N)=O
83.8

Give viability, T/C for this entry on 186277-243-T-J2-PDC multi-cell spheroid viability: CNC(=O)c1ccc(N2C(=S)N(c3ccc(C#N)c(C(F)(F)F)c3)C(=O)C2(C)C)cc1F + COc1c(OCCCN2CCOCC2)ccc2c3n(c(=NC(=O)c4cnc(N)nc4)nc12)CCN3
103
